Target: Jun bZIP R261A;Fos bZIP R155A (human;human, UniProt P05412;P01100 252-315;137-200, R261A|R155A)
Sequence (P05412 252-315 R261A, chain 1 of 2): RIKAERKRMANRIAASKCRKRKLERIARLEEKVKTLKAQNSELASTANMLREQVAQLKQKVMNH
Sequence (P01100 137-200 R155A, chain 2 of 2): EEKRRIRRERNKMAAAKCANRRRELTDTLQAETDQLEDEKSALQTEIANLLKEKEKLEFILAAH
Assay: ITC
endpoint: Kd (nM)

INSERT INTO assay_data (binder, unit_spec, endpoint_result) VALUES
  ('TRE duplex 15-mer (dsDNA) DNA 1: CGCGTGACTCACCCC DNA 2: GGGGTGAGTCACGCG', 'nM', 2460);
